System: A498 renal
Assay: NCI-60 one-dose screen, 48 h
Settings: 10 µM unless noted
Compounds without any hit were thinned out: in the full panel of roughly 83,000, 20% have a hit. The source made the active and inactive calls. Rule for the calls: active = growth percent below 10; inactive = the rest.
Hi! Could you answer with just one of these? 1 (yes) for active, 0 (no) for inactive

Prompt: So what was the verdict on "CC(=O)C(/C=N/C(N)=O)=C(/C)O" in this test?
Completion: 0 (no)

Prompt: Try the compound "O=C(O)CN(CCN(CC(=O)O)CC(=O)O)CCN(CC(=O)O)CC(=O)O"
Completion: 0 (no)

Prompt: Also "O=C(CCc1ccc(O)cc1)N/N=C/c1cc(Br)ccc1O" , if possible.
Completion: 0 (no)

Prompt: Now the compound "O=C1c2ccccc2C(=O)N1/N=C/c1ccc2c(c1)OCO2"
Completion: 0 (no)

Prompt: Another compound to check: "CNC(=O)c1cccnc1"
Completion: 0 (no)

Prompt: Then this compound: "S=C1SCN(Cc2ccccc2)CN1Cc1ccccc1"
Completion: 0 (no)

Prompt: Continue with "O=[N+]([O-])c1ccc(N/N=C\c2cc(Br)ccc2O)nc1"
Completion: 0 (no)

Prompt: Try the compound "COc1cc(C(=O)c2ccc3c(c2)OCO3)cc(OC)c1OC"
Completion: 1 (yes)

Prompt: Another compound to check: CCN(CC)CCC(CNc1c2ccc([N+](=O)[O-])cc2nc2cc(OC)c(OC)cc12)c1ccccc1 (stereo unspecified)
Completion: 1 (yes)

Prompt: Now the same for CC1(c2ccc3ccccc3c2)CCC(=O)O1 (stereo unspecified)
Completion: 0 (no)

Prompt: Request: "Cn1cc(-c2cc3c(Nc4ccc(CC(=O)Nc5cc(C(C)(C)C)on5)cc4)ncnc3[nH]2)cn1"
Completion: 1 (yes)

###

Test system: OVCAR-4 ovarian
Test: NCI-60 one-dose screen, 48 h (100 = growth as untreated, 0 = no growth, -100 = all killed)
Details: 10 µM unless noted
The panel holds about 83,000 compounds, 20% with a hit somewhere; the sample as a whole holds those more often.
PROPERTY NAME: growth (%)
Write down the numeric answer in % and omit the unit.

Prompt: growth lookup needed for "Nc1ccc2ccc(N)cc2c1" , thanks.
Completion: 40

Prompt: Next up: "CNC(=O)c1cccnc1"
Completion: 108

Prompt: What would you report for O=C1c2c(O)cc(O)cc2OC(c2ccc(O)c(O)c2)C1O (configuration not stated) ?
Completion: 113

Prompt: Also need "N/C(=N\N=C\c1ccc2c(c1)OCO2)N/N=C\c1ccc2c(c1)OCO2" , thanks.
Completion: 93.8

Prompt: Param item: "Oc1c(CN2CCCCC2)ccc2cccnc12"
Completion: 29.3

Prompt: // next record "Cc1ccc(S(=O)(=O)NCN2C(=O)c3ccccc3C2=O)cc1"
Completion: 96.7

Prompt: Can you check "Clc1nc(Oc2ccccc2)nc(-c2cn(-c3ccccc3)c3ccccc23)n1" next?
Completion: 98.8

###

Test system: OVCAR-5 ovarian
Experiment: NCI-60 one-dose screen, 48 h (100 = growth as untreated, 0 = no growth, -100 = all killed)
Details: 10 µM unless noted
The panel holds about 83,000 compounds, 20% with a hit somewhere; the sample as a whole holds those more often.
PROPERTY NAME: growth (%)
Respond numerically; units are % and should not be typed.

Prompt: # returns recorded growth (system: OVCAR-5 ovarian) for CCC(=O)C(CC)c1cccc(OC)c1 (stereo unspecified)
Completion: 115

Prompt: // same read-out, input: "CN(Cc1ccccc1)Cc1ccccc1"
Completion: 103

Prompt: Param item: "O=[N+]([O-])c1ccc2nc3c4ccccc4c4ccccc4c3nc2c1"
Completion: 91.7

Prompt: Now consider "CCOC(=O)c1sc(N)nc1-c1ccccc1" .
Completion: 90.9

Prompt: Same lookup for CC1(c2ccc3ccccc3c2)CCC(=O)O1 (stereo unspecified) , please.
Completion: 102

Prompt: How about this compound: "Cc1ccc(NCSc2ccc(Cl)cc2)cc1"
Completion: 106

Prompt: Let us now turn to "COc1ccc2ccccc2c1/C=N/N1CCCCC1"
Completion: 98.7

Prompt: Would you kindly repeat that for "N#CCCOc1ccccc1" ?
Completion: 107

Prompt: Try this compound too: "Cc1ccc(-c2noc(CC(=O)c3ccc([N+](=O)[O-])cc3)n2)cc1"
Completion: 97.5

Prompt: Also "CC1=C(/C=C/C(C)=C/C=C/C(C)=C/C(=O)Nc2ccc(O)cc2)C(C)(C)CCC1" , if possible.
Completion: 89.9

Prompt: What would you report for "Cc1ccc2nc3c(nc2c1)-c1cccc2cccc-3c12" ?
Completion: 94.6

Prompt: Next up: "C[N+](C)(C)CN1C(=O)c2ccccc2C1=O"
Completion: 105

Prompt: Cool, now "Nc1ccc2ccc(N)cc2c1"
Completion: 124

Prompt: Try this compound next: "Cc1c(Cl)cccc1NCN1C(=O)c2ccccc2C1=O"
Completion: 107

Prompt: Another: Oc1ccccc1C=NCC1CCC(CN=Cc2ccccc2O)CC1 (stereo unspecified)
Completion: 67.6

Prompt: Another: "CCN(CC)CCOc1ccc2c(c1)C(=O)c1cc(OCCN(CC)CC)ccc1-2"
Completion: 108

Prompt: Consider next the compound "CCOC(=O)c1c(C)oc(C)c(C(=O)OCC)c1=O" in the same way.
Completion: 114

Prompt: Could you do the same for CC(O)Cn1cnc2c1c(=O)n(C)c(=O)n2C (stereo unspecified) , please?
Completion: 125

Prompt: Try this compound too: "C1CCCCNCCC1"
Completion: 106

Prompt: Repeat with "Cc1n[nH]c(=O)n(/N=C\c2c[nH]c3ccccc23)c1=O"
Completion: 106

Prompt: And then "CCCCCCCCCCCCCCCCOc1ccc(C)cc1" , what is it?
Completion: 99.9

Prompt: # iterate: "O=C(O)c1cc(C(=O)O)cc([N+](=O)[O-])c1"
Completion: 105

Prompt: Here is the next compound: "CCCCCCCCCCCCOc1ccccc1C=O"
Completion: 101

Prompt: # iterate: O=C1C2=C(C(=O)c3ccccc31)C(O)(S(=O)(=O)O)C(O)(S(=O)(=O)O)C1N=CC=CC21 (stereo unspecified)
Completion: 51.9

Prompt: Moving on to the next compound: "COc1cc(C(=O)N/N=C/c2ccc(N(C)C)cc2)cc(OC)c1OC"
Completion: 44.5

Prompt: Please do the same for "Cc1ccc(S(=O)(=O)NCN2C(=O)c3ccccc3C2=O)cc1" as well.
Completion: 110

###

System: SK-MEL-2 melanoma
Experiment: NCI-60 one-dose screen, 48 h (100 = growth as untreated, 0 = no growth, -100 = all killed)
Settings: 10 µM unless noted
This is part of a sample that, as a whole, favours compounds with a hit. Of some 83,000 tested, about 20% had one in any assay.
PROPERTY NAME: growth (%)
All answers are understood in %, so give the number only.

Prompt: Item O=CC(O)C(O)C(O)CO (configuration not stated) with SK-MEL-2 melanoma - growth?
Completion: -27.3

Prompt: Input "CC12CCC(CC1)C(C)(C)O2"
Completion: 90.7

Prompt: Can you check "CNC(=O)c1cc(Oc2ccc(NC(=O)Nc3ccc(Cl)c(C(F)(F)F)c3)cc2)ccn1" next?
Completion: -42.9

Prompt: Try this molecule too: "CCOc1ccc2cc(-c3nn(CC4CCN(C)CC4)c4ncnc(N)c34)ccc2c1"
Completion: 108

Prompt: Here is the next molecule: "O=C(Cc1cccc2ccccc12)N/N=C/c1ccc2c(c1)CCC2"
Completion: 84.6

Prompt: And for "O=S(=O)(Nc1ccccc1)C1CCCCC1" ?
Completion: 103

Prompt: Now the same for CC(/C=N/N1C(=O)c2ccccc2C1=O)c1ccccc1 (configuration not stated)
Completion: 110

Prompt: Please give the result for "Cc1ccc(-c2noc(CC(=O)c3ccc([N+](=O)[O-])cc3)n2)cc1" too.
Completion: 110

Prompt: What do you get for "O=C(O)CSCc1nc2ccccc2[nH]1" ?
Completion: 105

Prompt: Same thing, different molecule: "O=C(Oc1cccc(OC(=O)c2ccccc2)c1)c1ccccc1"
Completion: 93.2

Prompt: What do we get for "COc1ccc2ccccc2c1/C=N/N1CCCCC1" ?
Completion: 102

Prompt: Try the molecule "S=C1SCN(Cc2ccccc2)CN1Cc1ccccc1"
Completion: 85

###

Test system: TK-10 renal
Assay: NCI-60 one-dose screen, 48 h
Conditions: 10 µM unless noted
This is part of a sample that, as a whole, favours compounds with a hit. Of some 83,000 tested, about 20% had one in any assay. Active and inactive are the calls of the source. The calls were made as follows: active = growth percent below 10; inactive = the rest.
Hi there, use one of these labels in your reply, thanks! active, inactive

Prompt: Could you kindly confirm the outcome this assay logged for "NC(=S)N/N=C(\c1ccc(Br)cc1)C1CC1" ?
Completion: inactive

Prompt: "Cc1ccc(S(=O)(=O)NCN2C(=O)c3ccccc3C2=O)cc1" ?
Completion: inactive

Prompt: Do the same for "COc1ccc2ccccc2c1/C=N/N1CCCCC1" please
Completion: inactive

Prompt: Next: "CCCCCCCCCCCCOc1ccccc1C=O"
Completion: inactive

Prompt: Do the same for "O=C1c2ccccc2C(=O)N1/N=C/c1ccc2c(c1)OCO2" please
Completion: inactive

Prompt: // next record NC(=O)CC1OC(=O)Cc2cc3c(c(O)c21)C(=O)c1c(O)cccc1C3=O (stereo not drawn)
Completion: inactive

Prompt: What do you have for "Fc1ccccc1Nc1n[nH]c(=S)s1" ?
Completion: inactive

Prompt: One more compound: "CC(C)(C)c1ccc(O)c(CNC2CCCCC2)c1"
Completion: inactive

Prompt: Consider next the compound CCC(=O)C(CC)c1cccc(OC)c1 (stereo not drawn) in the same way.
Completion: inactive

Prompt: Also check CC1C2(C)OC(=N)C(C#N)(C(c3cccc([N+](=O)[O-])c3)O2)C1(C#N)C#N (stereo not drawn)
Completion: inactive

Prompt: Repeat with "Cc1nn(-c2ccccc2)nc1C(=O)Nc1ccccc1C(=O)NCC1CC1"
Completion: inactive

Prompt: Same thing, different compound: "O=[N+]([O-])c1ccc2nc3c4ccccc4c4ccccc4c3nc2c1"
Completion: inactive

Prompt: Here is the next compound: "C1CCCCNCCC1"
Completion: inactive

Prompt: Also check "N#C/C(=C1C=C/C(=N/O)C(Br)=C/1)c1ccccc1"
Completion: inactive

Prompt: Now consider "CCN(CC)C(=S)SSC(=S)N(CC)CC" and answer again.
Completion: inactive

Prompt: How about "S=C1SCN(Cc2ccccc2)CN1Cc1ccccc1" ?
Completion: inactive

Prompt: # repeat for "CC1=C(/C=C/C(C)=C/C=C/C(C)=C/C(=O)Nc2ccc(O)cc2)C(C)(C)CCC1"
Completion: inactive

Prompt: Lookup "O=C=NC(c1ccccc1)(c1ccccc1)c1ccccc1"
Completion: inactive

Prompt: Can you check CC(/C=N/N1C(=O)c2ccccc2C1=O)c1ccccc1 (stereo not drawn) next?
Completion: inactive

Prompt: Okay, and CC1OC23CCCCC2C(C#N)(C#N)C1(C#N)C(=N)O3 (stereo not drawn) ?
Completion: inactive

Prompt: Thanks! And "CCC/C(Cl)=N/OC(=O)Nc1cccc(F)c1" ?
Completion: active

Prompt: Record: "Cc1ccc(-c2noc(C)n2)cc1"
Completion: inactive

Prompt: "COc1c2c(c3c(c1OC)c(=O)c1ccccc1n3C)OCO2" , same question.
Completion: inactive

Prompt: Same again, this time with "O=C(Nc1cccc(-n2ccc3c(NC(=O)c4ccccc4)nccc32)c1)c1ccc(Cl)c(C(F)(F)F)c1"
Completion: inactive

Prompt: Thanks! And "Cc1n[nH]c(=O)n(/N=C\c2c[nH]c3ccccc23)c1=O" ?
Completion: inactive

Prompt: Now consider "CCCCCCCCCCCCCCCCOc1ccc(C)cc1" .
Completion: inactive

Prompt: // next record CC1(c2ccc3ccccc3c2)CCC(=O)O1 (stereo not drawn)
Completion: inactive

Prompt: Same read-out for "Nc1ccc2ccc(N)cc2c1" ?
Completion: inactive
